Where do these numbers come from? They come from patent US20240026037A1.

Biological target: T1, Human GPA33 on GPA33+ colorectal cancer cell lines (Colo 205, LS 174T, SW 1222) (human, UniProt Q99795 22-319)
T1 construct: Endogenous GPA33 on human colorectal cancer cell lines; also called surface human GPA33; GPA33+ tumor cell lines
T1 sequence: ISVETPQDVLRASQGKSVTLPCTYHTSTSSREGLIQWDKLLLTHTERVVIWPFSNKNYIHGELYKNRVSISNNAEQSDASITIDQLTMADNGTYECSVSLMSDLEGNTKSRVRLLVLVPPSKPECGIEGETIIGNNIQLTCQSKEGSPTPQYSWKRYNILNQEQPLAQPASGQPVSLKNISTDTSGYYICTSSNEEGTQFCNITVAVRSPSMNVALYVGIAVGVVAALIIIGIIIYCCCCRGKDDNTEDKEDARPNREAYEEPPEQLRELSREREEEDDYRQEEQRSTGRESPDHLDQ
Assay: cell binding to SW1222 Luc cells; IgG format
# class assignment by measured EC50: category 1: < 0.5 µg/mL; category 2: ≥ 0.5 µg/mL and < 1 µg/mL; category 3: ≥ 1 µg/mL

- binder: "G3A_VK7+VH2 (antibody, V domains shown) VH: EVQLVESGGGLVKPGGSLRLSCAASGFAFSTYDMSWVRQAPGKGLEWVATISSGGSYTYYLDSVKGRFTISRDSAKNSLYLQMNSLRAEDTAVYYCAPTTVVPFAYWGQGTLVTVSA VL: DIQMTQSPSSLSASVGDRVTITCKASQNVRTVVAWYQQKPGKAPKRLIYLASNRHTGVPSRFSGSGSGTEFTLTISNVQPEDFATYYCLQHWSYPLTFGSGTKLEVK"
  qualitative_label: "category 2"
- binder: "G3A_VK4+VH3 (antibody, IgG1, V domains shown) VH: EVQLVESGGGLVKPGGSLRLSCAASGFAFSTYDMSWVRQAPGKGLEWVATISSGGSYTYYADSVKGRFTISRDSAKNSLYLQMNSLRAEDTAVYYCAPTTVVPFAYWGQGTLVTVSA VL: DIQMTQSPSSLSASVGDRVTITCKASQNVRTVVAWYQQKPGKAPKTLIYLASNRHTGVPSRFSGSGSGTEFTLTISNLQPEDFATYYCLQHWSYPLTFGSGTKLEVK"
  qualitative_label: "category 3"
- binder: "G3A_VK6+VH3 (antibody, V domains shown) VH: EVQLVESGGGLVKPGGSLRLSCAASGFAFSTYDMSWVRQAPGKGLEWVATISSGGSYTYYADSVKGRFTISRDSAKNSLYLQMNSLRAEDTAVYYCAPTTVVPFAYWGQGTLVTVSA VL: DIQMTQSPSSLSASVGDRVTITCKASQNVRTVVAWYQQKPGKAPKRLIYLASNRHTGVPSRFSGSGSGTEFTLTISNLQPEDFATYFCLQHWSYPLTFGSGTKLEVK"
  qualitative_label: "category 2"
- binder: "G3A_VK8+VH3 (antibody, V domains shown) VH: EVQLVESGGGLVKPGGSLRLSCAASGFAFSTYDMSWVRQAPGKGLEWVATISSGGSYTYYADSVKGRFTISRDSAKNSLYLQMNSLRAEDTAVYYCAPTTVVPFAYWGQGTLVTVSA VL: DIQMTQSPSSLSASVGDRVTITCKASQNVRTVVAWYQQKPGKAPKRLIYLASNRHTGVPSRFSGSGSGTEFTLTISNLQPEDFADYYCLQHWSYPLTFGSGTKLEVK"
  qualitative_label: "category 2"
- binder: "G3A_VK3+VH3 (antibody, IgG1, V domains shown) VH: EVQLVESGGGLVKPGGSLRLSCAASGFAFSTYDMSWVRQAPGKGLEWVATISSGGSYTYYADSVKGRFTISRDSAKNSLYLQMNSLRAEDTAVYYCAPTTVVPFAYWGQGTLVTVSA VL: DIQMTQSPSSLSTSVGDRVTITCKASQNVRTVVAWYQQKPGKAPKTLIYLASNRHSGVPSRFSGSGSGTEFTLTISNLQPEDFATYYCLQHWSYPLTFGSGTKLEVK"
  qualitative_label: "category 1"

Exercise: For the record G3A_VK5+VH3 (antibody, V domains shown) VH: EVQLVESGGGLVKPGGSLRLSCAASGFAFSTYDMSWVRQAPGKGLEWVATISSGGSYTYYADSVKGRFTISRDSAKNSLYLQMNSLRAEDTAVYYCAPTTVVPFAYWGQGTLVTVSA VL: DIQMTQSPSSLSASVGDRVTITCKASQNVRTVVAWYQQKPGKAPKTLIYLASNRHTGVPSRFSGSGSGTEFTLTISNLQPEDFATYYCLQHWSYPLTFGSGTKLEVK , report the class its EC50 corresponds to.
Solution: category 1

Exercise: For the record G3A_VK6+VH2 (antibody, V domains shown) VH: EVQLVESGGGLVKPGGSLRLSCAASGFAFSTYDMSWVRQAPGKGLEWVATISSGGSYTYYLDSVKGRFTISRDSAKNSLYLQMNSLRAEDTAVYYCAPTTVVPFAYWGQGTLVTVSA VL: DIQMTQSPSSLSASVGDRVTITCKASQNVRTVVAWYQQKPGKAPKRLIYLASNRHTGVPSRFSGSGSGTEFTLTISNLQPEDFATYFCLQHWSYPLTFGSGTKLEVK , report the class its EC50 corresponds to.
Solution: category 3

Exercise: For the record G3A_VK7+VH1 (antibody, V domains shown) VH: EVQLVESGGGLVKPGGSLRLSCAASGFAFSTYDMSWVRQAPGKGLEWVSTISSGGSYTYYADSVKGRFTISRDNAKNSLYLQMNSLRAEDTAVYYCAPTTVVPFAYWGQGTLVTVSA VL: DIQMTQSPSSLSASVGDRVTITCKASQNVRTVVAWYQQKPGKAPKRLIYLASNRHTGVPSRFSGSGSGTEFTLTISNVQPEDFATYYCLQHWSYPLTFGSGTKLEVK , report the class its EC50 corresponds to.
Solution: category 3
